target: EGFR Wild type vIII Ba/F3 cells (Homo sapiens (Human), UniProt P00533, DELINS30-297G); assay: Ba/F3 cell growth inhibition (MTS assay), EGFR Wild type vIII; assay type: cell-based; settings: read-out: EGFR Ba/F3 cells IC 50 (nM) Assay 1 Wild type vIII
observable: IC50 (nM)
Your answer should be a plain number; it is taken to be in nM.

// query Please give the measured IC50 for this molecule: C=CC(=O)Nc1cccc(N(C(=O)Oc2ccccc2)c2ccnc(Nc3ccc(N4CCN(C)CC4)cc3OC)n2)c1 [Compound 10A]
// result 28.1

====

molecular target: EGFR Del Ba/F3 cells (Homo sapiens, UniProt P00533, cells depend on it, form not given); test: Ba/F3 cell growth inhibition (MTS assay), EGFR Del; type: cell-based; details: 100 nM drug; Table F
observable: EGFR activity (% Control, 100 nM drug) Del

These recorded examples may help you get a feel for the data.
1) C=CC(=O)Nc1ccc(OC)c(Nc2cc(N(C)C(=O)Nc3ccc(F)c(Cl)c3)ncn2)c1 [Compound 18A]	30 % Control
2) C=CC(=O)Nc1ccc(OC)c(Nc2cc(N(C)C(=O)NCc3ccccc3)ncn2)c1 [Compound 16A]	78 % Control
3) COc1ccc(NC(=O)/C=C/CN(C)C)cc1Nc1ncc2c(n1)N(C)C(=O)N(c1ccccc1)C2 [Compound 7A]	35 % Control
4) C=CC(=O)Nc1cccc(Nc2cc(N(C)C(=O)Nc3ccccc3)ncn2)c1 [Compound 13A]	13 % Control
5) C=CC(=O)Nc1cccc(Nc2cc(N(C)C(=O)NCc3ccccc3)ncn2)c1 [Compound 17A]	28 % Control

// query Provide the documented EGFR activity (% Control, 100 nM drug) Del with EGFR Del Ba/F3 cells (Homo sapiens, UniProt P00533, cells depend on it, form not given) as the system for C=CC(=O)Nc1cccc(Nc2cc(N(C)C(=O)Nc3ccc(F)c(Cl)c3)ncn2)c1 [Compound 19A]
// result 79 % Control

// query Provide the documented EGFR activity (% Control, 100 nM drug) Del with EGFR Del Ba/F3 cells (Homo sapiens, UniProt P00533, cells depend on it, form not given) as the system for C=CC(=O)Nc1ccc(OC)c(Nc2cc(N(C)C(=O)Nc3ccccc3)ncn2)c1 [Compound 12A]
// result 0 % Control

====

target: EGFR L858R/T790M/L718Q Ba/F3 cells (Homo sapiens (Human), UniProt P00533, L718Q/L858R/T790M); assay: Ba/F3 cell growth inhibition (MTS assay), EGFR L858R/T790M/L718Q; format: cell-based; details: 100 nM drug; Table F
observable: EGFR activity (% Control, 100 nM drug) L858R/T790M/L718Q

These recorded examples may help you get a feel for the data.
1. COc1ccc(NC(=O)/C=C/CN(C)C)cc1Nc1cc(N(C)C(=O)Nc2ccccc2)ncn1 [Compound 20A]	93 % Control
2. C=CC(=O)Nc1ccc(OC)c(Nc2cc(N(C)C(=O)Nc3ccccc3)ncn2)c1 [Compound 12A]	84 % Control
3. C=CC(=O)Nc1cccc(Nc2cc(N(C)C(=O)Nc3ccccc3)ncn2)c1 [Compound 13A]	89 % Control
4. C=CC(=O)Nc1ccc(OC)c(Nc2cc(N(C)C(=O)NCc3ccccc3)ncn2)c1 [Compound 16A]	92 % Control

# ---- query compound ----
// query Please give the measured EGFR activity (% Control, 100 nM drug) L858R/T790M/L718Q for this compound: C=CC(=O)Nc1cccc(Nc2cc(N(C)C(=O)Nc3ccc(F)c(Cl)c3)ncn2)c1 [Compound 19A]
// result 99 % Control
